- MEASUREMENT_PROTOCOL: protein stability index of a GFP-peptide fusion (GPS, HEK-293T) (PSI 1-6); higher = more stable;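 note: 24-mer peptide tiles fused after GFP, lentivirally expressed, FACS-sorted into six equal bins by GFP/DsRed ratio, decoded by Illumina sequencing, PSI is the read-weighted mean bin number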
- RUN_PARAMETERS: treatment: MLN4924 1 uM, 8 h; c terminus: a fixed tail appended
Readings of protein stability index for the listed sequences
Form rule: numeric answer, no unit written next to it.

Some solved entries appear below for comparison.
Input: # lookup: protein stability index of TPYLKETLNSIWNVEDHINPKLPN [POMT2]
Output: 3.45

Input: # lookup: protein stability index of AKGGSRLCTPEGWFSCQGPFDMDS [DFFB]
Output: 3.1

Input: # lookup: protein stability index of AESSVPPVTSIGIDNLGLKLEENL [SLC35F2]
Output: 5.13

Continuing:
Input: # lookup: protein stability index of GDRLNVEVDAAPPVDLNKILEDMR [KRT36]
Output: 4.32

Input: # lookup: protein stability index of ELHQVAERVEALGQFVMKTRRTLK [GNB5]
Output: 3.1

Input: # lookup: protein stability index of KRYGLGAHRGRLNIQAGINENDFY [CPXM2]
Output: 2.61

Input: # lookup: protein stability index of RQRFRHLRYQETPGPREALSQLRV [ZNF232]
Output: 3.39

###

- MEASUREMENT_PROTOCOL: protein stability index of a GFP-peptide fusion (GPS, HEK-293T) (PSI 1-6); higher = more stable
- RUN_PARAMETERS: treatment: DMSO; c terminus: a fixed tail appended
QUANTITY_MEASURED: protein stability index
Form rule: numeric answer, no unit written next to it.

Input: # lookup: protein stability index of KERQKKDNHNLIERRRRFNINDRI [TFE3]
Output: 3.95

Continuing:
Input: # lookup: protein stability index of AEDEEMNRMHESMKLFDSICNNKW [GNAI1]
Output: 3.97

Input: # lookup: protein stability index of ASSSPVTLRQKTVDWRRVSRLQED [SLA]
Output: 3.9

###

Readings of protein stability index for the listed sequences
- MEASUREMENT_PROTOCOL: protein stability index of a GFP-peptide fusion (GPS, HEK-293T) (PSI 1-6); higher = more stable
- RUN_PARAMETERS: treatment: DMSO; c terminus: a fixed tail appended
Form rule: numeric answer, no unit written next to it.

Input: # lookup: protein stability index of DVNKTDHSQRTALHLAAQKALRTI [INVS]
Output: 3.06

Input: # lookup: protein stability index of ASSVESTLPVLEASSWKKQVSHDF [FBXO34]
Output: 3.56

Input: # lookup: protein stability index of AEEAGLKNNDLVVAVNGESVETLD [PDZK1]
Output: 5.49

Input: # lookup: protein stability index of LGSVQFMEQFCWPHLRSFCETCVG
Output: 2.39

Input: # lookup: protein stability index of PAQPGADSSFPPALAEGYRYPELD [TBX6]
Output: 5.14

Input: # lookup: protein stability index of HYFPVMKKCCIPETRRRMEMAFNT [NLN]
Output: 2.35

Input: # lookup: protein stability index of RAKCRNMEHALREKAKAFWAMRRS [TRIM35]
Output: 2.09

Input: # lookup: protein stability index of TDRGNDNWLIKYDCPMDSSSSRDT [PI4K2A]
Output: 4.44

Input: # lookup: protein stability index of VSTKEQILDLLVLEQFLSILPKEL [ZSCAN9]
Output: 3.21

Input: # lookup: protein stability index of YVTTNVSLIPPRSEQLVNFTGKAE [TMEM106C]
Output: 2.49

Continuing:
Input: # lookup: protein stability index of DHPLPEVAHVKHLSASQKALKEKE [COX4I1]
Output: 5.43

Input: # lookup: protein stability index of SSSSSSSSCYPLIPSTPEEVSADD [MAGEA10]
Output: 5.46

Input: # lookup: protein stability index of RQRFRHLRYQETPGPREALSQLRV [ZNF232]
Output: 3.13

Input: # lookup: protein stability index of GDRLNVEVDAAPPVDLNKILEDMR [KRT36]
Output: 4.24

Input: # lookup: protein stability index of GYPVSSAFAFQNTFPHSISAKNTS [SASS6]
Output: 3.19

Input: # lookup: protein stability index of IFEGNSEKEIPVLNELPVPMVARY [CPXM2]
Output: 3.55

Input: # lookup: protein stability index of LRGLCRPLRPLLGFRESDSAKPAS [C6orf223]
Output: 3.31

Input: # lookup: protein stability index of DESLCPQHHEALSLFCYEDQEAVC [TRIM39]
Output: 4.7

Input: # lookup: protein stability index of AHRERNEFPEDPEFEAVVRQAELA [PI4K2A]
Output: 5.32

###

- MEASUREMENT_PROTOCOL: protein stability index of a GFP-peptide fusion (GPS, HEK-293T) (PSI 1-6); higher = more stable
- RUN_PARAMETERS: treatment: DMSO; c terminus: a fixed tail appended
Readings of protein stability index for the listed sequences
Form rule: numeric answer, no unit written next to it.

Input: # lookup: protein stability index of EKYGRAHPVFYQGTYSQALNDAKR [FAF2]
Output: 3.28

Input: # lookup: protein stability index of LQSAAGKDAAKQIAWIKDKLLHIY [PDS5B]
Output: 2.59

Input: # lookup: protein stability index of KASLWQFLSSEKQICGTHRQTKKM [TRIM43]
Output: 2.63

Input: # lookup: protein stability index of KRYGLGAHRGRLNIQAGINENDFY [CPXM2]
Output: 2.45

Input: # lookup: protein stability index of YPCIPNHELVWAKMKGFGFWPAKV [ZMYND11]
Output: 3.09

Input: # lookup: protein stability index of PQTRSGPECGLAKKPPEESTCFER [ADAMTSL2]
Output: 5.05

Input: # lookup: protein stability index of ERMAEEGGGGQGDGGSSLASGSTQ [FBXO28]
Output: 5.53

Input: # lookup: protein stability index of NVLHGYPKDIYSSFGFPRTVKHID [MMP1]
Output: 2.63

Input: # lookup: protein stability index of RLWSLSYTKLPSSLQSTGKCLLYC [SLC25A39]
Output: 2.78

Input: # lookup: protein stability index of NKDGIGEICLWGRHIFMGYLESET [ACSBG2]
Output: 2.29

Continuing:
Input: # lookup: protein stability index of QNMMNHCNLWDSHHPEVPQRILRI [HDAC6]
Output: 2.2

Input: # lookup: protein stability index of DAPVPDCLGVHCDFHQGLLSFYNA [FSD1]
Output: 2.41

Input: # lookup: protein stability index of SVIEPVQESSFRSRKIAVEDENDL [MIA2]
Output: 5.05

Input: # lookup: protein stability index of VFFLFPHSVLVDDDGIKVVKVTFN [TMEM106C]
Output: 2.76

Input: # lookup: protein stability index of PTYGRSFTLASSSDTRVGAPATGS [CHIT1]
Output: 4.29

Input: # lookup: protein stability index of MGVGKASASDGSSFVVARYFPAGN [GLIPR2]
Output: 3.13

Input: # lookup: protein stability index of SSHEPCSATCTTGVMSAYAMCVRY [ADAMTSL2]
Output: 2.24

###

- MEASUREMENT_PROTOCOL: protein stability index of a GFP-peptide fusion (GPS, HEK-293T) (PSI 1-6); higher = more stable
- RUN_PARAMETERS: treatment: MLN4924 1 uM, 8 h; c terminus: a fixed tail appended
QUANTITY_MEASURED: protein stability index

Input: # lookup: protein stability index of KERQKKDNHNLIERRRRFNINDRI [TFE3]
Output: 4.08

Input: # lookup: protein stability index of ELEPLKGNFDWEAIFDAGTLGGEL [FOXJ1]
Output: 4.05

Input: # lookup: protein stability index of EDSLGCLTADTKEVTASQEARGLR [IRX6]
Output: 5.3

Here is another sequence to look at.
Input: # lookup: protein stability index of PYKCPECGKSFSRSSHLVIHERTH [ZNF263]
Output: 3.28

###

- MEASUREMENT_PROTOCOL: protein stability index of a GFP-peptide fusion (GPS, HEK-293T) (PSI 1-6); higher = more stable
- RUN_PARAMETERS: treatment: DMSO; c terminus: a fixed tail appended
Mark not fulfilled for protein stability index values under 3, and fulfilled for everything at or above.

Input: // inclusive: protein stability index at least 3? input: LKSDLEKASALNTKIRALQGSLEN [CD207]
Output: fulfilled

Input: // inclusive: protein stability index at least 3? input: CWSRDGHKLVSASTDNIVSQWDVL [RBBP5]
Output: not fulfilled

Input: // inclusive: protein stability index at least 3? input: GNFQGIRFHYDRNPGTDAVAQTSL [FATE1]
Output: fulfilled

Input: // inclusive: protein stability index at least 3? input: EHPEALSCLLLQLRREKPSEEMVK [INTS3]
Output: fulfilled

Continuing:
Input: // inclusive: protein stability index at least 3? input: EKWAEGGGHSRERADEPQWSLYPS [CHGB]
Output: fulfilled

Input: // inclusive: protein stability index at least 3? input: VAWNGPRMGDADYLAAWHRLVLPI [HDAC6]
Output: not fulfilled

Input: // inclusive: protein stability index at least 3? input: QFANLVLHQTVERIHVGKKYGDIP [LSM1]
Output: not fulfilled

Input: // inclusive: protein stability index at least 3? input: ENTLLNSQMVSTDNSLSSQNYISQ [MIA2]
Output: fulfilled

Input: // inclusive: protein stability index at least 3? input: MKTFVSPEAISPDLVKKIRDFHRK [TRIM15]
Output: fulfilled

Input: // inclusive: protein stability index at least 3? input: ATLKGPDSHYGTKGLKKVVHETPA [BTBD1]
Output: fulfilled

Input: // inclusive: protein stability index at least 3? input: SWSAGLHNRYTENSLRGVILDIHF [FUT8]
Output: not fulfilled

Input: // inclusive: protein stability index at least 3? input: FLDILRRADKNDDGKLSFEEFKAY [NECAB1]
Output: not fulfilled

Input: // inclusive: protein stability index at least 3? input: VVKQFVTGIIDSLTISPKAARVGL [MATN2]
Output: not fulfilled

Input: // inclusive: protein stability index at least 3? input: VCLMGHERRQTLNLISLLALRVLA [TENT5C]
Output: not fulfilled

Input: // inclusive: protein stability index at least 3? input: LFPGRVSVDLMLGLPAQQVGPWLG [RSAD1]
Output: not fulfilled

Input: // inclusive: protein stability index at least 3? input: CQPRNLDKERAVLLQRRKRENMSD [KMT2E]
Output: fulfilled
